Molecular target: T1, P4-AA
T1 chain: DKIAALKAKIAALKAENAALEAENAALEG
Assay: two-hybrid library CCmax;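 also: natural log of median RNA to DNA barcode read ratio; higher means stronger binding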
Conditions: mean of both orientations
rule met if interaction score is below -1. rule not met if not; exact matches included in rule not met.

Reference set, count: 2
For DEIAALEAEIAALEAKNAALKAKNAALKG [P3-AA] , is the recorded interaction score below the cut-off of -1?
rule not met

For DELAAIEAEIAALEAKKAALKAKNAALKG [AP3-AA] , is the recorded interaction score below the cut-off of -1?
rule not met

Further cases:
For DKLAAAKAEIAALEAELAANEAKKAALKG [AP8-AA] , is the recorded interaction score below the cut-off of -1?
rule met

For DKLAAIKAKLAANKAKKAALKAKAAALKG [AP2-AA] , is the recorded interaction score below the cut-off of -1?
rule met

For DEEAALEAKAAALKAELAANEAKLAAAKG [AP6-AA] , is the recorded interaction score below the cut-off of -1?
rule met

For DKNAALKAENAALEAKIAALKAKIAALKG [P10-AA] , is the recorded interaction score below the cut-off of -1?
rule met

For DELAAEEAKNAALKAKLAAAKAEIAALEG [AP7-AA] , is the recorded interaction score below the cut-off of -1?
rule met

For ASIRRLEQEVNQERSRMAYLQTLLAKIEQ [4H_BCR] , is the recorded interaction score below the cut-off of -1?
rule met

For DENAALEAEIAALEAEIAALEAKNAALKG [P11-AA] , is the recorded interaction score below the cut-off of -1?
rule not met

For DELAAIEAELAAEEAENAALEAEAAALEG [AP1-AA] , is the recorded interaction score below the cut-off of -1?
rule met

For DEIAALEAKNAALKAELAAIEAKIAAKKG [AP5-AA] , is the recorded interaction score below the cut-off of -1?
rule not met

For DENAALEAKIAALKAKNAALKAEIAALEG [4H1401-AA] , is the recorded interaction score below the cut-off of -1?
rule met

For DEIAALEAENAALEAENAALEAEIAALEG [P1-AA] , is the recorded interaction score below the cut-off of -1?
rule met

For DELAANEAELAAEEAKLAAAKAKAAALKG [AP4-AA] , is the recorded interaction score below the cut-off of -1?
rule met
